What MIC, E. AEROGENES was measured for each of the following?
Tested on: E. aerogenes clinical isolates
Test Name: Broth microdilution MIC, clinical isolate strains (NAUTICA)
Format: cell-based
Applied Conditions: clinical isolates, one table line per isolate; unit assumed
One number for each entry, in µg/mL.

Some entries whose results are on file:
MIC, E. AEROGENES for COC(=O)c1cc(-c2nnn(C)n2)c(C(=O)OC)s1 [DNM-114] is 128

MIC, E. AEROGENES for O=C(O)c1cc(-c2nnn[nH]2)c(C(=O)O)s1 [DNM-111] is 128

MIC, E. AEROGENES for Cn1nnnc1-c1cc(C(=O)O)sc1C(=O)O [DNM-113] is 8

MIC, E. AEROGENES for O=C(O)c1cc(-c2nnn[nH]2)c(-c2ccc(F)cc2)s1 [DNM-121] is 64

Further cases:
MIC, E. AEROGENES for O=C(O)c1cc(-c2nn[nH]n2)cs1 [DNM-116] is 16
